Target: Beta-lactamase (Escherichia coli)
Test: Activity of Escherichia coli CMY-2 relative to Cephaloridine
For each entry below, report its Activity value.
Give bare numbers, in %.

// worked examples, Activity included
smiles_notation=C[C@@H](O)[C@H]1C(=O)N2C(C(=O)O)=C(S[C@@H]3CN[C@H](CNS(N)(=O)=O)C3)[C@H](C)[C@H]12 assay_target="Beta-lactamase (Escherichia coli)" reported_metric=Activity units_label=% data_value=1e-05
smiles_notation=C[C@@H](O)[C@H]1C(=O)N2C(C(=O)O)=C(S[C@@H]3CN[C@H](C(=O)N(C)C)C3)[C@H](C)[C@H]12 assay_target="Beta-lactamase (Escherichia coli)" reported_metric=Activity units_label=% data_value=1.1e-05
smiles_notation=CC1(C)S[C@@H]2[C@H](NC(=O)Cc3ccccc3)C(=O)N2[C@H]1C(=O)O assay_target="Beta-lactamase (Escherichia coli)" reported_metric=Activity units_label=% data_value=3.1

Field: Activity. Fill in for each record below.
1. C[C@@H](O)[C@H]1C(=O)N2C(C(=O)O)=C(SCCNC=N)C[C@H]12
2. O=C(Cc1cccs1)N[C@@H]1C(=O)N2C(C(=O)O)=C(/C=C/c3ccc([N+](=O)[O-])cc3[N+](=O)[O-])CS[C@H]12

## Output
0.0044
240

----------
System: Escherichia coli
Test: Kcat/Km ratio of Klebsiella pneumoniae Beta-lactamase TEM-26 relative to Cephaloridine
Provide the reported Activity of each item.
Answers are plain numbers, in %.

Items follow; give Activity for each.
1. C[C@@H](O)[C@H]1C(=O)N2C(C(=O)O)=C(SCCNC=N)C[C@H]12
2. CC(C)(O/N=C(\C(=O)N[C@@H]1C(=O)N2C(C(=O)[O-])=C(C[n+]3ccccc3)CS[C@H]12)c1csc(N)n1)C(=O)O
3. C[C@@H](O)[C@H]1C(=O)N2C(C(=O)O)=C(S[C@@H]3CN[C@H](CNS(N)(=O)=O)C3)[C@H](C)[C@H]12
4. CC1(C)S[C@@H]2[C@H](NC(=O)Cc3ccccc3)C(=O)N2[C@H]1C(=O)O

## Output
0.03
130
0.0082
2700

## Input State its Activity for this compound: `C[C@@H](O)[C@H]1C(=O)N2C(C(=O)O)=C(S[C@@H]3CN[C@H](C(=O)N(C)C)C3)[C@H](C)[C@H]12`
## Output 0.0079

----------
I'd be grateful if you could share measured Activity for these entries.
Target: Beta-lactamase (Pseudomonas aeruginosa (strain ATCC 15692 / PAO1 / 1C / PRS 101 / LMG12228))
Experiment: Kcat/Km ratio of Pseudomonas aeruginosa AmpC relative to Cephaloridine

Past entries and their recorded results:
smiles_notation=C[C@@H](O)[C@H]1C(=O)N2C(C(=O)O)=C(SCCNC=N)C[C@H]12 data_value="< 7%"
smiles_notation=CC(C)(O/N=C(\C(=O)N[C@@H]1C(=O)N2C(C(=O)[O-])=C(C[n+]3ccccc3)CS[C@H]12)c1csc(N)n1)C(=O)O data_value="< 0.48%"
smiles_notation=C[C@@H](O)[C@H]1C(=O)N2C(C(=O)O)=C(S[C@@H]3CN[C@H](C(=O)N(C)C)C3)[C@H](C)[C@H]12 data_value="< 1.6%"

Parameter requested: Activity. Apply to each item below.
1. CC1(C)S[C@@H]2[C@H](NC(=O)Cc3ccccc3)C(=O)N2[C@H]1C(=O)O
2. C[C@@H](O)[C@H]1C(=O)N2C(C(=O)O)=C(S[C@@H]3CN[C@H](CNS(N)(=O)=O)C3)[C@H](C)[C@H]12

## Output
1%
< 1.2%
